Every entry's value here was drawn from patent US9012443B2.

Target: Nav 1.7 (Homo sapiens (Human), UniProt Q15858)
Sequence (Q15858 whole entry): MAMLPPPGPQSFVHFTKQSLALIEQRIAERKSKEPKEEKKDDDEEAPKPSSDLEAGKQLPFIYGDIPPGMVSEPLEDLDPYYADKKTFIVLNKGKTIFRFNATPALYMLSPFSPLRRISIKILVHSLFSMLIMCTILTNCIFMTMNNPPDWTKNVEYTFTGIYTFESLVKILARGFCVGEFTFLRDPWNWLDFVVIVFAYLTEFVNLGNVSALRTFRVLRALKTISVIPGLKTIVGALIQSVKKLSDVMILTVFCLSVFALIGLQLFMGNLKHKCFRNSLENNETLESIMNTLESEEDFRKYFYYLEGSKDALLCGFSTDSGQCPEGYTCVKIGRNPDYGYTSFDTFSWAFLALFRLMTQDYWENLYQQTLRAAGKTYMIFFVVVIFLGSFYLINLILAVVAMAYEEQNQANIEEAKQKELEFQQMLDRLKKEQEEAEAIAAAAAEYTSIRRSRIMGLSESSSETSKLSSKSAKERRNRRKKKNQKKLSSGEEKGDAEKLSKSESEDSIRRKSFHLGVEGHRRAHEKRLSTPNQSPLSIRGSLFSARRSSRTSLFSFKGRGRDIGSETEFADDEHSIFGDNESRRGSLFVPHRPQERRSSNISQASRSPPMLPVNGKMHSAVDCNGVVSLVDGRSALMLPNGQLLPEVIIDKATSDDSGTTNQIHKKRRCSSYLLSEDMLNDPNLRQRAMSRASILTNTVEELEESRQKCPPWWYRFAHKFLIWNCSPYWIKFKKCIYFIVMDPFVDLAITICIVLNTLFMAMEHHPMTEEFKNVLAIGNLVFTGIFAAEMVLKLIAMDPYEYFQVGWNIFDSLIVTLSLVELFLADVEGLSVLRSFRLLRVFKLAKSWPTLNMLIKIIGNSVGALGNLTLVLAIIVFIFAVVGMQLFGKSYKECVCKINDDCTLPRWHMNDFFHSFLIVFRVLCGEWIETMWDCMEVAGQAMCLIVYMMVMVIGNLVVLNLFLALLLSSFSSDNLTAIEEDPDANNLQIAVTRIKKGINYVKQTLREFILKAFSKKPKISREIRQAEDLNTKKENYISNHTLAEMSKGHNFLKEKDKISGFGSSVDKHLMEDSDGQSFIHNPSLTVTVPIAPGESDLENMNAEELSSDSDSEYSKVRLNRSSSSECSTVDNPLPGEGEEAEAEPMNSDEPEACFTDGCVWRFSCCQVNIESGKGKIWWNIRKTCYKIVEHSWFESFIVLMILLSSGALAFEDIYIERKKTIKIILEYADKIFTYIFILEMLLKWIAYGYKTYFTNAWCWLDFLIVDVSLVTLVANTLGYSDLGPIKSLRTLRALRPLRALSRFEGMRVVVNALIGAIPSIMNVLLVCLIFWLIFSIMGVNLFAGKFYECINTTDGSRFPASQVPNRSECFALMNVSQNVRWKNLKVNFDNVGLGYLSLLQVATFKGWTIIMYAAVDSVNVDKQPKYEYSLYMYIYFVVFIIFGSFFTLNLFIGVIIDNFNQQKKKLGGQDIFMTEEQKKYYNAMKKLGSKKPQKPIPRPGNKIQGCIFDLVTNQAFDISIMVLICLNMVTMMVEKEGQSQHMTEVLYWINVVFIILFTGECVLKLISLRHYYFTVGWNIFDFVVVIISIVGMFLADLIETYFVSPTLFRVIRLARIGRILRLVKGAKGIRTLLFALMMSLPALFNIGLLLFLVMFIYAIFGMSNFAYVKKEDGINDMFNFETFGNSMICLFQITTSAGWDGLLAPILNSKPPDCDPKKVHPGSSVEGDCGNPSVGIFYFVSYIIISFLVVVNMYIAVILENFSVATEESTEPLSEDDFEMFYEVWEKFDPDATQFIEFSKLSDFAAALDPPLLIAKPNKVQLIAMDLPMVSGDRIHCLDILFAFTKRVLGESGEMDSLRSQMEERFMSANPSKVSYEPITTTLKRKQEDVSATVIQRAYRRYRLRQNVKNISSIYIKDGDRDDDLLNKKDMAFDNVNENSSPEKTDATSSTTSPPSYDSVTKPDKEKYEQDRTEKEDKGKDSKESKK
Test: Nav 1.7 IWQ in vitro assay (IonWorks Quattro population patch-clamp)
Format: cell-based
Conditions: 293 cells stably transfected with Nav 1.7; second part of table; read-out: Nav1.7 IWQ IC50 IP

Molecule	Study Target	IC50
O=S(=O)(Nc1nccs1)c1ccc2c(N3CCC(c4ccccc4)C3)nccc2c1 (stereo not shown)	Nav 1.7 (Homo sapiens (Human), UniProt Q15858)	780 nM
COc1ccc(-c2nccc3cc(S(=O)(=O)Nc4ccncn4)ccc23)c(OC)c1	Nav 1.7 (Homo sapiens (Human), UniProt Q15858)	270 nM
COc1ncc(Cl)cc1-c1nccc2cc(S(=O)(=O)Nc3ccncn3)ccc12	Nav 1.7 (Homo sapiens (Human), UniProt Q15858)	30 nM
Cc1cc(C#N)ccc1-c1nccc2cc(S(=O)(=O)Nc3ccncn3)ccc12	Nav 1.7 (Homo sapiens (Human), UniProt Q15858)	4830 nM
